The reported measurements were obtained from paper PMC10397247.

Molecular target: T1, P5bH1
T1 chain: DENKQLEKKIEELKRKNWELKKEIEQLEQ
Experiment: two-hybrid library CCNG1;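 further: natural log of median RNA to DNA barcode read ratio; higher means stronger binding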
ENDPOINT_NAME: interaction score

Worked examples follow.
DKIKQLKKKIEELKRENWELEKENEQLEQ [P4bH1] = -1.09
DENQELEKENEELKREIWELEKKIQELKR [4H1222-bH] = 0.361
DKNKQLKKKIEELKRKIWELKKENEQLEQ [P12bH1] = -0.826
DENKQLEKKIEELKRKNWELKKEIEQLEQ [P5bH1] = -0.609
DENKQLEKEIEELEREIWELEKKNEQLKQ [P11bH1] = 1.1
DKIKQLKKKNEELKRKNWELKKKIEQLKQ [P2bH1] = -0.796
DKNKQLKKENEELERKIWELKKKIEQLKQ [P10bH1] = -0.973

P: DEIKQLEKENEELERENWELEKEIEQLEQ [P1bH1]
Q: DEIKQLEKEIEELERKNWELKKKNEQLKQ [P3bH1]
stdin: Lower value for measured interaction score? Options: P , Q Selection: enter the item's label.
stdout: P
